system: LNCaP; test: Antiproliferative activity against human LNCAP cells after 48 hrs by MTT assay; type: functional, cell-based
The source made the active and inactive calls. No cut-off for these calls is given here.
Labels: label 1 = active, label 0 = inactive

CC1=C(/C=C/C(C)=C/C=C/C(C)=C/C(=O)N[C@@H](CC(C)C)C(=O)O)C(C)(C)CCC1 | label 1
CC1=C(/C=C/C(C)=C/C=C/C(C)=C/C(=O)O)C(C)(C)CCC1 [TRETINOIN] | label 1
CC1=C(/C=C/C(C)=C/C=C/C(C)=C/C(=O)NCCC(=O)O)C(C)(C)CCC1 | label 1
CC1=C(/C=C/C(C)=C/C=C/C(C)=C/C(=O)NCCCCCC(=O)O)C(C)(C)CCC1 | label 0
